Just for reference, ChEMBL document CHEMBL1158606 is where these values come from.

Tested on: Brugia malayi
Test: Antifilarial activity against Brugia malayi assessed as loss of motility at 80 ng/ml after 48 hrs by MTT assay
Assay type: functional
Quick list: Activity per entry.
assay-endpoint: Activity (%)

compound	recorded-result
O=C1C(Cl)C(c2ccc(F)cc2)N1c1ccc(O)c2ncccc12 (stereo unspecified)	26
CC1C(Cl)C(=O)N1c1ccc(O)c2ncccc12 (stereo unspecified)	76
COc1ccc(C2C(Cl)C(=O)N2c2ccc(O)c3ncccc23)cc1 (stereo unspecified)	91
O=C1C(Cl)C(c2ccccc2)N1c1ccc(O)c2ncccc12 (stereo unspecified)	2
O=C1C(Cl)C(c2ccc(Cl)cc2)N1c1ccc(O)c2ncccc12 (stereo unspecified)	36
O=C1C(Cl)C(c2ccc(Br)cc2)N1c1ccc(O)c2ncccc12 (stereo unspecified)	16

---

System: Brugia malayi
Test: Antifilarial activity against Brugia malayi assessed as loss of motility at 100 ng/ml after 48 hrs by MTT assay
Type: functional
Classify: fulfilled when Activity is strictly less than 60%; not fulfilled when Activity is not.

compound	class-assignment
O=C1C(Cl)C(c2ccc(Br)cc2)N1c1ccc(O)c2ncccc12 (stereo unspecified)	fulfilled
CC1C(Cl)C(=O)N1c1ccc(O)c2ncccc12 (stereo unspecified)	not fulfilled
O=C1C(Cl)C(c2ccc(F)cc2)N1c1ccc(O)c2ncccc12 (stereo unspecified)	fulfilled
COc1ccc(C2C(Cl)C(=O)N2c2ccc(O)c3ncccc23)cc1 (stereo unspecified)	not fulfilled
O=C1C(Cl)C(c2ccccc2)N1c1ccc(O)c2ncccc12 (stereo unspecified)	fulfilled
